assay: Plasma drug exposure in nude mice; type: in vivo; details: nude, mouse, plasma, po, 10 mg/kg, 10 mg/kg po qd, Day 21 (chronic dosing); read-out: AUC0-8 hr
READOUT_TYPE: AUC(0-t) (ng·h/mL)
Give bare numbers, in ng·h/mL.

Given item `CC(C)(C(=O)NCC(F)(F)C(F)(F)F)C(=O)N[C@@H]1C(=O)Nc2ccccc2-c2ccccc21` , the value recorded as its AUC(0-t) is 923

---

assay: Plasma drug exposure in nude mice; format: in vivo; settings: nude, mouse, plasma, po, 10 mg/kg, 10 mg/kg po, Day 1 (single dose, naïve mice); read-out: AUC0-8 hr
READOUT_TYPE: AUC(0-t)
Put down the number, then write its unit next to it.

Sure, the documented AUC(0-t) for `CC(C)(C(=O)NCC(F)(F)C(F)(F)F)C(=O)N[C@@H]1C(=O)Nc2ccccc2-c2ccccc21` is 1280 ng·h/mL

---

assay: in vivo; conditions: nude, mouse, in vivo, maximum tolerated dose (MTD)
READOUT_TYPE: MTD at 7 days

Reported MTD at 7 days ( `CC(C)(C(=O)NCC(F)(F)C(F)(F)F)C(=O)N[C@@H]1C(=O)Nc2ccccc2-c2ccccc21` ) = 60 mg/kg

---

assay: Plasma drug exposure in nude mice; assay type: in vivo; settings: nude, mouse, plasma; oral daily dosing of 10 mg/kg; read-out: Exposures producing efficacy (AUC24/day)
READOUT_TYPE: AUC

Looking up `CC(C)(C(=O)NCC(F)(F)C(F)(F)F)C(=O)N[C@@H]1C(=O)Nc2ccccc2-c2ccccc21` , I see its AUC listed as ~1100 ng·h/mL

---

test: Plasma drug exposure in nude mice; type: in vivo; conditions: nude, mouse, plasma, po, 10 mg/kg, 10 mg/kg po, Day 1 (single dose, naïve mice)
READOUT_TYPE: Cmax (ng/mL)
Give bare numbers, in ng/mL.

Cmax for CC(C)(C(=O)NCC(F)(F)C(F)(F)F)C(=O)N[C@@H]1C(=O)Nc2ccccc2-c2ccccc21 [Compound (1)] is 559

---

assay: in vivo; conditions: nude, mouse, in vivo, maximum tolerated dose (MTD)
READOUT_TYPE: MTD at 14 days
Answer format reminder: number followed by unit.

Lab book: MTD at 14 days of CC(C)(C(=O)NCC(F)(F)C(F)(F)F)C(=O)N[C@@H]1C(=O)Nc2ccccc2-c2ccccc21 [Compound (1)] noted as 30 mg/kg
